Would you mind telling me the reported PDI of each entry?
- assay details: Particle size and polydispersity index of nanoparticle compositions (Zetasizer Nano ZS)
- Format: physicochemical
- condition parameters: Table 1; * lipid:DSPC:Chol:PEG-DMG 50:10:38.5:1.5
- Protocol: A Zetasizer Nano ZS (Malvern Instruments Ltd, Malvern, Worcestershire, UK) can be used to determine the particle size, the polydispersity index (PDI) and the zeta potential of the nanoparticle compositions in 1×PBS in determining particle size and 15 mM PBS in determining zeta potential.
Answers are plain numbers.

Use the examples below as a reference point.
CCCCCCCCCCCCCCN(CCCCCCCCCCCCCC)CCN1CCN(CCN(CCCCCCCCCCCC)CCN(CCCCCCCCCCCC)CCCCCCCCCCCC)CC1 yielded PDI of 0.112

CCCCC/C=C\C/C=C\CCCCCCCCN(CCCCCCCC/C=C\C/C=C\CCCCC)CCN(CCCCCCCC/C=C\C/C=C\CCCCC)CCN1CCN(CCN(CCCCCCCCCCCC)CCCCCCCCCCCC)CC1 yielded PDI of 0.077

CCCCCCCCCCCCN(CCCCCCCCCCCC)CCN1CCN(C(=O)CN(CCCCCCCCCCCC)CCN(CCCCCCCCCCCC)CCCCCCCCCCCC)CC1 yielded PDI of 0.108

CCCCC/C=C\CCCCCN(CCCCCCCCCCCC)CCN1CCN(CCN(CCCCCCCCCCCC)CCN(CCCCCCCCCCCC)CCCCCCCCCCCC)CC1 yielded PDI of 0.131

CCCCCCCCCN(CCCCCCCCC)CCN(CCCCCCCCC)CCN1CCNCC1 yielded PDI of 0.110

Hi! Can you tell me PDI for each of these compounds?
1. CCCCCCCC/C=C\CCCCCCCCN(CCCCCCCC/C=C\CCCCCCCC)CCN(CCCCCCCC/C=C\CCCCCCCC)CCN1CCNCC1
2. CCCCCCCCCCCCN(CCCCCCCCCCCC)CCN(CCCCCCCCCCCC)CCN1CCNCC1

0.210
0.107

CCCCC/C=C\C/C=C\CCCCCCCCN(CCCCCCCC/C=C\C/C=C\CCCCC)CCN(CCCCCCCC/C=C\C/C=C\CCCCC)CCN1CCNCC1 yielded PDI of 0.239
